Reference source for all entries: PubChem BioAssay AID2685

Recorded measurements of cell number change, one per entry
- experimentDescription: qHTS Assay for Lipid Storage Modulators in Drosophila S3 Cells;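 as to cell number change: cells counted by Cell Tracker Red CMTPX staining in the red channel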
- setupConditions: BODIPY lipid droplet fluorescence, 18-24 h, cells fed with added oleic acid; measured here: cell count max response
Out of some 320,000 compounds screened, about 2,100 (0.66%) were called active. Inconclusive results (about 53%) are left out. Many of the other results were omitted from the sample, so actives are more common in it than they were.

Check out these entries, answers already filled in.
O=C(O)c1ccccc1-c1ccccc1C(=O)Nc1cccc(-c2nc3ccccc3o2)c1    14.5%
Cn1cccc1CC(=O)N/N=C/c1ccc(Cl)cc1    -7.57%
COc1ccc(Nc2c3c(nc4ccccc24)CCC3)cc1    21.3%
CC(=O)N(C)c1ccc(NC(=O)c2ccco2)cc1    -3.91%
O=[N+]([O-])c1cc(C(F)(F)F)ccc1NCCCCNS(=O)(=O)c1ccc(Cl)cc1    -16.8%
O=C(Nc1cccc(C(F)(F)F)c1)c1ccc(-n2cncn2)nc1    5.24%

stdin: State its cell number change: O=C(Nc1ccccc1NC(=O)c1ccco1)c1ccccc1
stdout: -10%

stdin: Using known records, supply cell number change for O=C(c1cccc(COc2cccc3ccccc23)c1)N1CCCC1
stdout: -5.05%

stdin: Indicate the recorded cell number change value for this compound: NC(=O)c1cc(-c2csc(-c3cccnc3)n2)ccc1O
stdout: 5%

stdin: Name the recorded cell number change of the item Cc1ccc(Cl)cc1NC(=S)N(CCN(C)C)C(C)c1ccccn1 (stereo unspecified) in your answer.
stdout: 25.6%

stdin: Give the reported value of cell number change for this record: Cc1cc(C)c2nc(NC(=O)c3ccc([N+](=O)[O-])o3)sc2c1
stdout: 8.03%

stdin: Using the record for Cc1csc(NC(=O)CSc2ncnc3ccccc23)n1 , state its measured cell number change.
stdout: -0.862%

====

- experimentDescription: qHTS Assay for Lipid Storage Modulators in Drosophila S3 Cells
- setupConditions: BODIPY lipid droplet fluorescence, 18-24 h, cells fed with added oleic acid; series mostly up to 46.1 µM
Hit rate of the full screen: of about 320,000 compounds, about 2,100 (0.66%) were called active. Roughly 53% stayed inconclusive and do not appear here. Calls follow the shape of the dose curve; as a rule, active = well fitted inhibition curve with a large enough effect in the signal ratio, with a control signal flat (not every such curve was filed as active); inconclusive = small, poorly fitted or top-dose-only effect, or effect the other way, or a change in a side signal; inactive = flat fitted curve, though single readings scatter; the % refers to the signal ratio. The sample holds actives, similar compounds and a random draw of the others, so the mix is not that of the screen.
The reply should be one of these categories: true (1) = active, false (0) = inactive

stdin: Can you look up the reported call for Cc1cc(=O)[nH]c(SCC(N)=O)c1C#N for me?
stdout: true (1)

stdin: Just curious, what result did O=[N+]([O-])c1cccc2c(S(=O)(=O)N3CCCCC3)cccc12 get here?
stdout: false (0)

stdin: Would you mind telling me which call this test gave Cc1cc(=O)oc(C)c1C(=O)NCCCN1CCN(c2ccc(F)cc2)CC1 ?
stdout: false (0)

stdin: Any idea what this test logged for Nc1nnc(SCC(=O)Nc2ccc(Cl)c(C(=O)O)c2)s1 ?
stdout: false (0)

stdin: Give the logged outcome of this assay for the following compound: O=C(CSC1=NS(=O)(=O)c2ccccc2N1)Nc1ccccc1F
stdout: true (1)

stdin: Call for entry O=[N+]([O-])c1cc(S(=O)(=O)N2CCCCCC2)ccc1Cl :
stdout: false (0)

stdin: Entry O=[N+]([O-])c1ccc(Oc2ccc(OCc3ccccc3)cc2)nc1 : call = ?
stdout: false (0)

stdin: In this assay, the call recorded for O=C(c1cc(-c2ccc(O)cc2)on1)N1CCN(c2ccc(F)cc2)CC1 was what?
stdout: false (0)

stdin: # fetch the recorded call for O=C(CSc1nc2ccccc2s1)Nc1ccc(Cl)c(C(=O)O)c1 here
stdout: false (0)

stdin: Test call, this compound: Cc1oc(-c2ccccc2F)nc1CN1CCC(C(=O)NCc2cccnc2)CC1
stdout: false (0)

====

- experimentDescription: qHTS Assay for Lipid Storage Modulators in Drosophila S3 Cells;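 as to cell number change: cells counted by Cell Tracker Red CMTPX staining in the red channel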
- setupConditions: BODIPY lipid droplet fluorescence, 18-24 h, cells fed with added oleic acid; measured here: cell count max response
The campaign covered roughly 320,000 compounds. About 2,100 (0.66%) were called active. Another 53% or so got no clear call; they are omitted. This is one part of a sample in which actives are shown more often than they occur.
Listing: cell number change of selected compounds
Value expressed in %; do not type the unit.

Examples with their reported cell number change follow.
O=C(C1=C[C@@H](C2CC2)C[C@@H](OCc2ccc(CO)cc2)O1)N1CCOCC1    -6.29
Cc1c(C(=O)NCCCN2CCCC2=O)oc2ccc(S(=O)(=O)N3CCOCC3)cc12    -0.135
Cc1ccc(-c2csc3ncnc(N4CCN(c5ccccc5O)CC4)c23)cc1    7.78
CC(C)(C)[C@H]1CCC(=O)N([C@H](CC#N)Cc2ccccc2)CC1    -9.71
NS(=O)(=O)c1ccc(CNC(=S)NC2CCCCC2)cc1    -8.89

stdin: Give cell number change for CCOC(=O)c1cccc(NC(=O)c2ccc(NC(=O)C3CCCO3)cc2)c1 (stereo unspecified)
stdout: -4.84

stdin: Tell us which cell number change value is on record for COc1cc(/C=C2\C(=O)N(C)C(=S)N2C)ccc1O
stdout: -9.16

stdin: Supply cell number change value. Item: O=C(COc1ccc(Cl)cc1Cl)N/N=C/c1ccc(OC2OC(CO)C(O)C(O)C2O)cc1 (stereo unspecified)
stdout: 14.9

stdin: Please supply the value of reported cell number change for the item COc1ccc(-c2csc3ncnc(N4CCN(c5ccc(OC)cc5)CC4)c23)cc1
stdout: 11.5

====

- experimentDescription: qHTS Assay for Lipid Storage Modulators in Drosophila S3 Cells
- setupConditions: BODIPY lipid droplet fluorescence, 18-24 h, cells fed with added oleic acid; series mostly up to 46.1 µM
Among all 320,000 compounds or so, about 2,100 (0.66%) were called active. About 53% were inconclusive and are not listed. Calls come from the whole dose curve; as a rule, active = well fitted inhibition curve with a large enough effect in the signal ratio, with a control signal flat (not every such curve was filed as active); inconclusive = small, poorly fitted or top-dose-only effect, or effect the other way, or a change in a side signal; inactive = flat fitted curve, though single readings scatter; the % refers to the signal ratio. Only a selection was taken, and actives are over-represented in it overall.
Could you please pick one outcome from this set? 1 (yes) = active, 0 (no) = inactive

Recorded results for 5 compounds are shown here.
CCOCCCNC(=O)c1cc2c(=O)n3cccc(C)c3nc2s1    0 (no)
CCN1C(=O)[C@@H]2[C@@H](c3ccc(-c4ccccc4)cc3)N3CCCC[C@@]3(C(=O)OC)[C@@H]2C1=O    0 (no)
O=C(Nc1cccc(-n2cnnn2)c1)c1cccc(Cl)c1    1 (yes)
CC(C)c1nnc(NC(=O)c2ccc3ccccc3c2)s1    0 (no)
CC(=O)NCCc1nc2ccccc2n1CCOc1ccccc1    0 (no)

stdin: # lookup: test call for CCN1C(=O)[C@H]2[C@@H](c3ccc(-c4ccc(OC)cc4)c(OC)c3)N3CCCC[C@@]3(C(=O)OC)[C@H]2C1=O
stdout: 1 (yes)

stdin: In this assay, the call recorded for O=C(Nc1cccc(-n2cnnn2)c1)c1cccs1 was what?
stdout: 0 (no)

stdin: Just curious, what result did CCC(C)Nc1nc2c(C)cccn2c(=O)c1C=Nc1ccc(OC)cc1 (stereo not drawn) get here?
stdout: 0 (no)

====

- experimentDescription: qHTS Assay for Lipid Storage Modulators in Drosophila S3 Cells
- setupConditions: BODIPY lipid droplet fluorescence, 18-24 h, cells fed with added oleic acid; series mostly up to 46.1 µM
Among all 320,000 compounds or so, about 2,100 (0.66%) were called active. Inconclusive results (about 53%) are left out. Calls follow the shape of the dose curve; as a rule, active = well fitted inhibition curve with a large enough effect in the signal ratio, with a control signal flat (not every such curve was filed as active); inconclusive = small, poorly fitted or top-dose-only effect, or effect the other way, or a change in a side signal; inactive = flat fitted curve, though single readings scatter; the % refers to the signal ratio. What follows is part of a selection rich in actives, with near analogues and random picks from the rest.
Result category, one only: True = active, False = inactive

Observe how each entry below is paired with its result.
O=C(NC1CCCC1)C(c1ccc(Cl)cc1)N(C(=O)c1csnn1)C1CC1 (stereo not drawn)    False
COc1ccccc1NC(=S)NCc1ccc(F)cc1    True
COc1ccc(NC(=S)N2CCC(C(=O)c3ccc(OC)cc3)CC2)cc1    False

stdin: Answer briefly: the call reported for Cc1nonc1C(=O)N/N=C/c1cc2c(cc1Br)OCO2 in this assay.
stdout: False

====

Below, each entry is listed with its recorded cell number change.
- experimentDescription: qHTS Assay for Lipid Storage Modulators in Drosophila S3 Cells;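 as to cell number change: cells counted by Cell Tracker Red CMTPX staining in the red channel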
- setupConditions: BODIPY lipid droplet fluorescence, 18-24 h, cells fed with added oleic acid; measured here: cell count max response
The whole screen tested about 320,000 compounds, of which about 2,100 (0.66%) were called active. Another 53% or so got no clear call; they are omitted. This is one part of a sample in which actives are shown more often than they occur.
# answer = value followed by unit

Recorded results for 6 molecules are shown here.
Cc1cc(C)nc(SCc2cn3c(C)cccc3n2)n1    13.2%
CN(C)S(=O)(=O)c1ccc(C(=O)/C=C/c2cccnc2)cc1    10.3%
CCOC(=O)Cc1csc(NC(=S)NC(=O)c2ccc(F)cc2)n1    -14.9%
CCCn1cc2c(c1-c1ccc(C)cc1)c(=O)n(C)c(=O)n2C    4.81%
N#Cc1ccsc1NC(=O)CSc1nnc(-c2ccccc2)o1    20.1%
COc1ccccc1C(=O)Nc1ccc2[nH]ncc2c1    0.824%

Please look at the following molecule next.
stdin: Provide measured cell number change value, entry: CCOC(=O)Cc1csc(NC(=O)c2ccc(F)cc2)n1
stdout: 5.42%
